Recorded values, source paper PMC9412861.

assay: 1H NMR/pH titration (pKa determination); format: physicochemical; details: 5 v/v % D2O-95 v/v % H2O, NMR-pH titration, 25 °C, I = 0.15 M; read-out: pKa3 ± SD (Terminal Benzimidazole Ring)
parameter_measured: pKa

[[record]]
smiles_structure = "CCCc1nc2c(C)cc(-c3nc4ccccc4n3C)cc2n1Cc1ccc(-c2ccccc2C(=O)O)cc1"
parameter_measured = "pKa"
assay_value = 6.08


----------
test: Thermodynamic (equilibrium) solubility, saturation shake-flask, in Prisma HT buffer; format: physicochemical; settings: pH 2.5, aqueous buffer, thermodynamic from solid, pH 2.50, 37 °C, read-out: Equilibrium solubility logS ± SD (converted)
parameter_measured: solubility thermodynamic at 6 h (µM)

[[record]]
smiles_structure = "CCCc1nc2c(C)cc(-c3nc4ccccc4n3C)cc2n1Cc1ccc(-c2ccccc2C(=O)O)cc1"
parameter_measured = "solubility thermodynamic at 6 h"
assay_value = 47.9

